Molecular target: PLA2 from Rat Platelet (Rattus norvegicus)
Construct: PLA2 released from thrombin-stimulated rat platelets; from tissue; host or cells: thrombin-stimulated rat platelets (released enzyme, purified on MD 7.1 antibody-coupled Sepharose)
Sequence (P14423 22-146): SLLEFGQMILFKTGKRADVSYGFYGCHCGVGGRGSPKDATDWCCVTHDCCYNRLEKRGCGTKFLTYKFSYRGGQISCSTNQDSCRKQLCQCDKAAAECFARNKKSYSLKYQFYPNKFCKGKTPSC
Assay: PLA2 inhibitory activity (release of free fatty acid from [14C]phosphatidylethanolamine)
Format: biochemical
Settings: Table 1; lactone form; 37° C., 20 minutes, pH 7.4; read-out: IC50, lactone form (Inhibitory Effect on PLA2 from Rat Platelet)
parameter measured: IC50

[[record]]
compound = "CCCCCCCCCCCCC1(C(=O)O)OC(=O)C(O)C1(O)C(=O)O (stereo not shown) [Cinatrin C1]"
result = "> 801 µM"

